# ASSAY_COMMENT: Toxicokinetic, plasma concentration of compound I-6-II after empty liposome preparation
# Assay type: in vivo, cynomolgus monkeys
# MEASUREMENT_SETUP: male, cynomolgus monkey, plasma, im, 300 ug, empty liposome low-dosage group (300 μg compound I-6-II/animal), intramuscular, D 1, male, Mean; read-out: t1/2 (converted)
ENDPOINT_NAME: half-life (h)
Answers are plain numbers, in h.

Just so you know, measured half-life for CCCCCCCCCOC(=O)CCCCCCCN(CCCCCCCC(=O)OC(CCCCCCCC)CCCCCCCC)[C@@H]1CCC[C@H](O)C1 came out at 5.1

---

# ASSAY_COMMENT: Toxicokinetic, plasma concentration of compound I-6-II after empty liposome preparation
# Format: in vivo, cynomolgus monkeys
# MEASUREMENT_SETUP: male, cynomolgus monkey, plasma, im, 300 ug, empty liposome low-dosage group (300 μg compound I-6-II/animal), intramuscular, D 1, male, Mean
ENDPOINT_NAME: Cmax (ng/mL)
Answers are plain numbers, in ng/mL.

Just so you know, measured Cmax for CCCCCCCCCOC(=O)CCCCCCCN(CCCCCCCC(=O)OC(CCCCCCCC)CCCCCCCC)[C@@H]1CCC[C@H](O)C1 came out at 50.6

---

# ASSAY_COMMENT: Toxicokinetic, plasma concentration of compound I-6-II after empty liposome preparation
# Type: in vivo, cynomolgus monkeys
# MEASUREMENT_SETUP: male, cynomolgus monkey, plasma, im, 300 ug, empty liposome low-dosage group (300 μg compound I-6-II/animal), intramuscular, D 1, male, Mean
ENDPOINT_NAME: Tmax (h)
Answers are plain numbers, in h.

Just so you know, measured Tmax for CCCCCCCCCOC(=O)CCCCCCCN(CCCCCCCC(=O)OC(CCCCCCCC)CCCCCCCC)[C@@H]1CCC[C@H](O)C1 came out at 4.8

---

# ASSAY_COMMENT: Toxicokinetic, plasma concentration of compound I-6-II after empty liposome preparation
# Type: in vivo, cynomolgus monkeys
# MEASUREMENT_SETUP: female, cynomolgus monkey, plasma, im, 1200 ug, empty liposome high-dosage group (1200 μg compound I-6-II/animal), intramuscular, D 29, female, Mean
ENDPOINT_NAME: Tmax (h)
Numbers only, in h.

Just so you know, measured Tmax for CCCCCCCCCOC(=O)CCCCCCCN(CCCCCCCC(=O)OC(CCCCCCCC)CCCCCCCC)[C@@H]1CCC[C@H](O)C1 came out at 8

---

# ASSAY_COMMENT: Toxicokinetic, plasma concentration of compound I-6-II after empty liposome preparation
# Assay type: in vivo, cynomolgus monkeys
# MEASUREMENT_SETUP: female, cynomolgus monkey, plasma, im, 300 ug, empty liposome low-dosage group (300 μg compound I-6-II/animal), intramuscular, D 1, female, Mean
ENDPOINT_NAME: AUC(0-t)

Just so you know, measured AUC(0-t) for CCCCCCCCCOC(=O)CCCCCCCN(CCCCCCCC(=O)OC(CCCCCCCC)CCCCCCCC)[C@@H]1CCC[C@H](O)C1 came out at 838 ng·h/mL

---

# ASSAY_COMMENT: Toxicokinetic, plasma concentration of compound I-6-II after empty liposome preparation
# Type: in vivo, cynomolgus monkeys
# MEASUREMENT_SETUP: both sexes, cynomolgus monkey, plasma, intramuscular, cynomolgus monkeys, over the empty liposome groups; read-out: plasma half-life
ENDPOINT_NAME: half-life

Just so you know, measured half-life for CCCCCCCCCOC(=O)CCCCCCCN(CCCCCCCC(=O)OC(CCCCCCCC)CCCCCCCC)[C@@H]1CCC[C@H](O)C1 came out at 4.68 to 6.45 h
